target: human sodium channel Nav 1.8 (Homo sapiens (Human), UniProt Q9Y5Y9); assay: Automated whole-cell voltage-clamp (ScreenPatch 384P), Nav 1.8 sodium current, Protocol 2; assay type: cell-based; conditions: read-out: Nav1.8 IC50
Sequence (Q9Y5Y9 whole entry): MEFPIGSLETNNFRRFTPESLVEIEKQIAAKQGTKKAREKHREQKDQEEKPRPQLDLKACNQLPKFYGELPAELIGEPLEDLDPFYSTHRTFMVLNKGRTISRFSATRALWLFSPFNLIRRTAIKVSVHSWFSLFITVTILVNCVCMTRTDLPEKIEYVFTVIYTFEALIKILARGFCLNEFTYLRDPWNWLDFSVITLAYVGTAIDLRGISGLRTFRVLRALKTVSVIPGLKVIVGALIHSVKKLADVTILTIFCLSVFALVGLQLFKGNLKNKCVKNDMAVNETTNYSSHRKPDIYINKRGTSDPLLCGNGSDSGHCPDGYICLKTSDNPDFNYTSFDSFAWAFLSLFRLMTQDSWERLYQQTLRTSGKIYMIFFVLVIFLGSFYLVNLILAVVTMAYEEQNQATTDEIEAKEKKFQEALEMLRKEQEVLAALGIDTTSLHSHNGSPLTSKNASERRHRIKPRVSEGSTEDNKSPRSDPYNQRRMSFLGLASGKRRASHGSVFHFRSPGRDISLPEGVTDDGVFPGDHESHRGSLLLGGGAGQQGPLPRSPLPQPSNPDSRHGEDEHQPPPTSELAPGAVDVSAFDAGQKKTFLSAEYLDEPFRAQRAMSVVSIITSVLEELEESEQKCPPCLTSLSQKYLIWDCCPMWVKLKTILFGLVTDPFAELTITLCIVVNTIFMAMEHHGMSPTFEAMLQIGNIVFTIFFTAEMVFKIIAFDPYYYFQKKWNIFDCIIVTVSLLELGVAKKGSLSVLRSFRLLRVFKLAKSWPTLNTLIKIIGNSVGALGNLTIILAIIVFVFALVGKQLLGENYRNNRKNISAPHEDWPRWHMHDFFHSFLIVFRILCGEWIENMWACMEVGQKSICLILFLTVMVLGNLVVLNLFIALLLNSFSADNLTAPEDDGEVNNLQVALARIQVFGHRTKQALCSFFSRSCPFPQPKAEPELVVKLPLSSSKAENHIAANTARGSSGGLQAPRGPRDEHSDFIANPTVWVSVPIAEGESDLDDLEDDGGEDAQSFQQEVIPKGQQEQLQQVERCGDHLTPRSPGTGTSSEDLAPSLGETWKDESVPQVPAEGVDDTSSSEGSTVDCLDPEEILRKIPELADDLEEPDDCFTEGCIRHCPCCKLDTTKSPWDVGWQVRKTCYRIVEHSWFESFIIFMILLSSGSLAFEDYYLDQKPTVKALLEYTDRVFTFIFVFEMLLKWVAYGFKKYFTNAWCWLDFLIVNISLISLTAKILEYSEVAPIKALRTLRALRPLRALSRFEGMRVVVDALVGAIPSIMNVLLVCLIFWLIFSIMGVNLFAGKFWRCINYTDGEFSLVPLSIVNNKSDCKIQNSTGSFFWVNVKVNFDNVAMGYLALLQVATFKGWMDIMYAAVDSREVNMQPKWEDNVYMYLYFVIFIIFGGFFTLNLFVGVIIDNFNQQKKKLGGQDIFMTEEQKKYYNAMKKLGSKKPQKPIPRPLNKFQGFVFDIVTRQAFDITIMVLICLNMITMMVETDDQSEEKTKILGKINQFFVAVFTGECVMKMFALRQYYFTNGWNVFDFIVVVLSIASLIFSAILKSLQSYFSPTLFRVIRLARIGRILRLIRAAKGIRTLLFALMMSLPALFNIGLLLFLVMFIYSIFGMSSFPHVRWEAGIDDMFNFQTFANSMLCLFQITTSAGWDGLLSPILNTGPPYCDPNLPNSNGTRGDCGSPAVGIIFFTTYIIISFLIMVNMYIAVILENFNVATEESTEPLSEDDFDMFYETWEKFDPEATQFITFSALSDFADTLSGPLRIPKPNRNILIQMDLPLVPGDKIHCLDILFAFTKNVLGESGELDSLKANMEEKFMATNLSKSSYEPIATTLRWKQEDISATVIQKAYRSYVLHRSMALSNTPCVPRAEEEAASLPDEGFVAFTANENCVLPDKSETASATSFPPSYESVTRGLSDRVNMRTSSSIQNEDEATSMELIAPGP
Readout label: IC50

Compound	Readout value
COc1cc(/C=N/NC(=O)c2cncc(N3CCCC(F)(F)CC3)n2)cc(OC)c1 [Compound 179]	> 1000 nM

// for each compound in input: emit IC50
1. COc1ccc(-c2cncc(C(=O)N/N=C/c3cccnc3)n2)cc1 [Compound 77]
2. COc1cc(/C=N/NC(=O)c2cnc(OC)cn2)cc(OC)c1 [Compound 142]
3. CCOc1ccc(-c2cncc(C(=O)N/N=C/c3ccnc(OC)c3)n2)cc1 [Compound 10]

["> 1000 nM", "> 1000 nM", "> 300 nM"]

====

molecular target: UniProt Q15858; assay: Automated whole-cell voltage-clamp (ScreenPatch 384P), Nav 1.7 sodium current, Protocol 2; format: cell-based; settings: read-out: Nav1.7 IC50
Sequence (Q15858 whole entry): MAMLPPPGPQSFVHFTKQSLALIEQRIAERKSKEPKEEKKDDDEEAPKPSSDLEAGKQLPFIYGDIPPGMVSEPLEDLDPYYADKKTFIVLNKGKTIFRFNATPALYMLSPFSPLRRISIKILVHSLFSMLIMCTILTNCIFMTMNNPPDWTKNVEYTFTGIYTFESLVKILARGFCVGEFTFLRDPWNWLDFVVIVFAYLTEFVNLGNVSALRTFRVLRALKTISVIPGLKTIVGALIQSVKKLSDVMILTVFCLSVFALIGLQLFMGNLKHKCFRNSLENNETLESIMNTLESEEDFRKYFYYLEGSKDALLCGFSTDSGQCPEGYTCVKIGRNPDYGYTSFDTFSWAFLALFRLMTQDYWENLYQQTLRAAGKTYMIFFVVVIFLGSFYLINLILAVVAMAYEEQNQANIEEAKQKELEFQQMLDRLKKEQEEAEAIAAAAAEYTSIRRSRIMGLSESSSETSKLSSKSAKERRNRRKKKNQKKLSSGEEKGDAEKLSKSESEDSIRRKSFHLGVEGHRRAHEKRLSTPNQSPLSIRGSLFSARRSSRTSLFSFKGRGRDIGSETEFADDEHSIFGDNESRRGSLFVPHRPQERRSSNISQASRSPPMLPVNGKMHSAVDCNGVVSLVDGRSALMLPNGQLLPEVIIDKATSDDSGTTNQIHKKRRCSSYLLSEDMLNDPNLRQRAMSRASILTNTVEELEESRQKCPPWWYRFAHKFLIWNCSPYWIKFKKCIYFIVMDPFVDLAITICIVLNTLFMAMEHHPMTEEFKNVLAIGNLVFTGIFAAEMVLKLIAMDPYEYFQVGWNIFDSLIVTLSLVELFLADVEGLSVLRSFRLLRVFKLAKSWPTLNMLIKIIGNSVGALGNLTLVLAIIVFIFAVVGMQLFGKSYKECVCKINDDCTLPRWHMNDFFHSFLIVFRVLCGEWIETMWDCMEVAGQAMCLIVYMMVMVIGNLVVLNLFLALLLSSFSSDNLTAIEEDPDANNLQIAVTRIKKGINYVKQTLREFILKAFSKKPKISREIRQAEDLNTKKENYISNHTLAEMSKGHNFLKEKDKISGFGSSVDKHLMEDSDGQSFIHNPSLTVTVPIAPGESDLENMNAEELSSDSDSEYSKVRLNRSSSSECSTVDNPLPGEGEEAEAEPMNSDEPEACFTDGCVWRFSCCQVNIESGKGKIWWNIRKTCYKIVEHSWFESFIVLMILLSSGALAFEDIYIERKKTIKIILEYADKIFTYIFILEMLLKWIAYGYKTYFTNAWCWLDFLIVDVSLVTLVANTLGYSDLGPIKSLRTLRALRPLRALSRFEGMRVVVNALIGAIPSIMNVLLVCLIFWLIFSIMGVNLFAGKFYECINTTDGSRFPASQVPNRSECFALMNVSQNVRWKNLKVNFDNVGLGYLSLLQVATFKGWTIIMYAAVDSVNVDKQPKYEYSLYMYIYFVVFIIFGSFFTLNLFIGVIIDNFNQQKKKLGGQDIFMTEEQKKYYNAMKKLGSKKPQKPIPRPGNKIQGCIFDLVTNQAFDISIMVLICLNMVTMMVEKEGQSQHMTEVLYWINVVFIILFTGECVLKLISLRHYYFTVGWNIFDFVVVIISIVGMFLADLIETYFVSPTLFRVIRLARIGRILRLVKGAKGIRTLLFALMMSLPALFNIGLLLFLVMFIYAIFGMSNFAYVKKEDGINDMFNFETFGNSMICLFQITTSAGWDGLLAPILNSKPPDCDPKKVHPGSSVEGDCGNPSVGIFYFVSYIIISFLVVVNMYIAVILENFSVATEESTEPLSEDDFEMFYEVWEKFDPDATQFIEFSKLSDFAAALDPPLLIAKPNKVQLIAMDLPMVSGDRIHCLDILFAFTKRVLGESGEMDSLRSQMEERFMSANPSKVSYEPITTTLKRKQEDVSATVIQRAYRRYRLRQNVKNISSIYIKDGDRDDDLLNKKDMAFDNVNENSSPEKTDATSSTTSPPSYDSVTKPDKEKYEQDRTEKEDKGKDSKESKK
pIC50: −log10 of the molar value.
Give pIC50 for every item shown.

Use the examples below as a reference point.
Compound	Readout value
COc1cc(/C=N/NC(=O)c2cncc(-c3ccc(Cl)cc3)n2)cc(OC)c1 [Compound 1]	< 6.00
CCOc1ccc(-c2cncc(C(=O)N/N=C/c3ccnc(OC)c3)n2)cc1 [Compound 10]	< 6.52
COc1cc(/C=N/NC(=O)c2cncc(-c3ccccc3OC)n2)cc(OC)c1 [Compound 102]	< 5.00
CCOc1ccc(-c2cncc(C(=O)N/N=C/c3ccc(C(=O)NS(C)(=O)=O)cc3)n2)cc1 [Compound 188]	< 5.00
COc1cc(/C=N/NC(=O)c2cncc(-c3ccc(C)cc3)n2)cc(OC)c1 [Compound 96]	< 5.00

Moving on to the next compound.
pIC50 for COc1cc(/C=N/NC(=O)c2cncc(-c3ccccc3N3CCOCC3)n2)cc(OC)c1 [Compound 114] ?
< 5.00

Data provenance is patent US20240335442A1.
